// reported N-acyl-derivative in tissue sample, mean for each item listed
testProtocol: In vivo formation of NAFB1 and NAHFB1 in rat kidney and liver (HPLC-ESI-MS/MS)
Design: unit not given here
testContext: Liver; treatment HFB1 1 mg/kg BW ip, 5 days

The following compounds have reported results that may help.
compound	N-acyl-derivative in tissue sample, mean
CCCCCCCCCCCCCCCCCCCC(=O)N[C@@H](C)[C@@H](O)C[C@H](O)CCCC[C@@H](O)C[C@H](C)C[C@H](O)[C@H](O)[C@H](C)CCCC	11,0
CCCCCCCCCCCCCCCC(=O)NC(C)C(O)CC(O)CCCCC(O)CC(C)CC(OC(=O)CC(CC(=O)O)C(=O)O)C(OC(=O)CC(CC(=O)O)C(=O)O)C(C)CCCC (centres unmarked)	0,0
CCCCCCCCCCCCCCCCCC(=O)N[C@@H](C)[C@@H](O)C[C@H](O)CCCC[C@@H](O)C[C@H](C)C[C@H](O)[C@H](O)[C@H](C)CCCC	1,8
CCCCCCCCCCCCCCCCCCCCCC(=O)N[C@@H](C)[C@@H](O)C[C@H](O)CCCC[C@@H](O)C[C@H](C)C[C@H](O)[C@H](O)[C@H](C)CCCC	53,4
CCCCCCCCCCCCCCCCCCCCCCCC(=O)N[C@@H](C)[C@@H](O)C[C@H](O)CCCC[C@@H](O)C[C@H](C)C[C@H](O)[C@H](O)[C@H](C)CCCC	24,2
CCCCCCCCCCCCCCCCCCCCCC(=O)NC(C)C(O)CC(O)CCCCC(O)CC(C)CC(OC(=O)CC(CC(=O)O)C(=O)O)C(OC(=O)CC(CC(=O)O)C(=O)O)C(C)CCCC (centres unmarked)	0,0

// Input: `CCCCCCCCCCCCCCCC(=O)N[C@@H](C)[C@@H](O)C[C@H](O)CCCC[C@@H](O)C[C@H](C)C[C@H](O)[C@H](O)[C@H](C)CCCC` . Output its N-acyl-derivative in tissue sample, mean only.
39,6

Answer with the recorded N-acyl-derivative in tissue sample, mean for the compound listed here: CCCCCCCCC=CCCCCCCCCCCCCCC(=O)NC(C)C(O)CC(O)CCCCC(O)CC(C)CC(OC(=O)CC(CC(=O)O)C(=O)O)C(OC(=O)CC(CC(=O)O)C(=O)O)C(C)CCCC (centres unmarked)
0,0

Fill in N-acyl-derivative in tissue sample, mean for record CCCCCCCCCCCCCCCCCCCC(=O)NC(C)C(O)CC(O)CCCCC(O)CC(C)CC(OC(=O)CC(CC(=O)O)C(=O)O)C(OC(=O)CC(CC(=O)O)C(=O)O)C(C)CCCC (centres unmarked)
0,0

Provide measured N-acyl-derivative in tissue sample, mean value, entry: `CCCCCCCC/C=C\CCCCCCCCCCCCCC(=O)N[C@@H](C)[C@@H](O)C[C@H](O)CCCC[C@@H](O)C[C@H](C)C[C@H](O)[C@H](O)[C@H](C)CCCC`
148,3

Return value of N-acyl-derivative in tissue sample, mean for input CCCCCCCCCCCCCCCCCCCCCCCC(=O)NC(C)C(O)CC(O)CCCCC(O)CC(C)CC(OC(=O)CC(CC(=O)O)C(=O)O)C(OC(=O)CC(CC(=O)O)C(=O)O)C(C)CCCC (centres unmarked) , no commentary.
0,0

Ref: paper PMC4298654
